Values from PubChem BioAssay (NCI)

TGI: recorded values
System: SR leukemia
test protocol: NCI tumour cell line growth inhibition, 48 h

- molecule: "N#C/C(=C/N1C(=O)/C(=C/c2ccc([N+](=O)[O-])cc2)SC1=S)c1nc2ccccc2s1"
  TGI: "> 100 µM"
- molecule: "N=C(N)CCNC(=O)C1CCC(N)=N1 (stereo not drawn)"
  TGI: "> 100 µM"
- molecule: "Cc1nn(CN2CCN(C)CC2)c(=S)n1/N=C/c1ccc(-c2ccc(Cl)cc2Cl)o1"
  TGI: "> 100 µM"

---

TGI: recorded values
System: IGROV1 ovarian
test protocol: NCI tumour cell line growth inhibition, 48 h

- compound string: "CCc1cccc(C)c1NC(=O)CCc1nnc(SC)o1"
  TGI: "> 100 µM"
- compound string: "Cc1ccc(/C(=C/C=C(/C#N)C(N)=O)Sc2ncnn2C)cc1"
  TGI: "> 55.1 µM"
- compound string: "COc1ccc(CNC(=O)[C@H](Cc2ccc(O)cn2)NC(C)=O)cc1OC"
  TGI: "> 100 µM"
- compound string: "COc1ccc(NC(=O)CC(=O)NN2C(=O)/C(=C/c3ccc(N(CCC#N)CCC#N)cc3C)N=C2/C=C\\c2ccccc2)cc1"
  TGI: "> 100 µM"

---

TGI: recorded values
Test system: UACC-257 melanoma
test protocol: NCI tumour cell line growth inhibition, 48 h

- compound: "O=c1[nH]nc(NCCc2ccccc2)c2nnn(Cc3ccccc3)c12"
  TGI: "> 100 µM"
- compound: "COc1c(Cl)nc2ccccc2c1N=[N+]=[N-]"
  TGI: "> 100 µM"
- compound: "COc1cccc(-n2ncc3c(N/N=C/c4cccc(F)c4)ncnc32)c1"
  TGI: "> 25 µM"
- compound: "C/C1=C\\CC[C@@]2(C)O[C@@H]2C[C@@H]2[C@H](C/C(C)=C/CC1)OC(=O)C21CC1"
  TGI: "> 100 µM"
- compound: "Cc1cc2nn(C3CCCO3)nc2cc1C (stereo not given)"
  TGI: "> 100 µM"
- compound: "COc1ccc2nc3n(c2c1)C(c1c(F)cccc1Cl)SC3 (stereo not given)"
  TGI: "> 100 µM"
- compound: "CCCC12Cc3c(OC)ccc(OC)c3CC(Cc3c(OC)ccc(OC)c31)C2=O (stereo not given)"
  TGI: "> 100 µM"
- compound: "CC(C)(C)c1cc(COc2c3sc(=S)sc3c(OCc3cc(C(C)(C)C)cc(C(C)(C)C)c3)c3sc(=S)sc23)cc(C(C)(C)C)c1"
  TGI: "> 100 µM"
- compound: "O=C1C(=C2SC(c3ccccc3)(c3ccccc3)c3ccccc32)C(=O)c2ccccc21"
  TGI: "> 100 µM"
- compound: "CC(=O)c1cccc(NC(=O)C(=O)C(C(=O)NN)c2ccccc2)c1 (stereo not given)"
  TGI: "> 100 µM"
- compound: "COc1ccc(CNC(=O)[C@H](Cc2ccc(O)cn2)NC(C)=O)cc1OC"
  TGI: "> 100 µM"
- compound: "CC1[C@@H]2CC=C3C4CCC5Cc6nc7c(nc6C[C@@]5(C)C4CC(=O)[C@]32CO[C@@]1(O)C(O)CC(C)(C)O)CC1CCC2C3=C[C@H]4O[C@@]5(O[C@@](C)(CO)C[C@@H]5O)C(C)[C@@]4(O)[C@]3(C)[C@@H](O)CC2[C@]1(C)C7 (stereo not given in full)"
  TGI: "0.112 µM"
- compound: "O=C1CC2C=CC1C2CO (stereo not given)"
  TGI: "> 100 µM"
- compound: "COc1ccc2cc(C(=O)NCCCNC(=O)c3ccc4c(OC)c(OC)ccc4c3)ccc2c1OC"
  TGI: "> 100 µM"
- compound: "CC/C=C/c1cc2c(c3[nH]ccc13)[C@@H](C)CC2C (stereo not given in full) (tested in a mixture with another compound)"
  TGI: "29.8 µM"

---

Tested on: HCT-116 colon
test protocol: NCI tumour cell line growth inhibition, 48 h
quantity name: TGI

- molecule: "CC(C)CNC(=O)c1ccc(NC(=O)N(CC(C)C)C(=O)c2ccc(N)c(OCCCN)c2)c(OCCCN=C(N)N)c1"
  assay system: "HCT-116 colon"
  result: "> 62.5 µM"
- molecule: "S=c1nc(COc2ccc(Cl)cc2)[nH][nH]1"
  assay system: "HCT-116 colon"
  result: "> 100 µM"
- molecule: "N=c1c2ccccc2nc2oc3ccccc3n12"
  assay system: "HCT-116 colon"
  result: "> 100 µM"
- molecule: "Cc1ccc(C2=C(c3ccccc3)C(=O)C(c3ccccc3)=C2c2ccc(C)cc2)cc1"
  assay system: "HCT-116 colon"
  result: "> 100 µM"
- molecule: "NCC(O)CSP(=O)(O)O (stereo unspecified)"
  assay system: "HCT-116 colon"
  result: "> 100 µM"
- molecule: "CN(C)c1ccc(N=Nc2ccc(Br)cn2)c(O)c1"
  assay system: "HCT-116 colon"
  result: "> 40 µM"
- molecule: "O=c1c2[nH]ccc2nc2n1CCS2"
  assay system: "HCT-116 colon"
  result: "> 100 µM"
- molecule: "C[C@@]1(O)C2C3CC4C5C3C1[C@](O)(C42)[C@H]5Br (stereo partly specified)"
  assay system: "HCT-116 colon"
  result: "> 100 µM"
- molecule: "COC(=O)CNC(=O)CCSc1nnc(COc2ccc(Cl)cc2)n1-c1ccccc1"
  assay system: "HCT-116 colon"
  result: "> 100 µM"
- molecule: "COc1ccc(C=C2C(=O)NC(=S)NC2=O)c2ccccc12"
  assay system: "HCT-116 colon"
  result: "> 100 µM"
- molecule: "O=C(O)C1(Cc2ccccc2)Cc2ccccc2C1"
  assay system: "HCT-116 colon"
  result: "> 100 µM"
- molecule: "COc1ccc2cc(C(=O)NCCCNC(=O)c3ccc4c(OC)c(OC)ccc4c3)ccc2c1OC"
  assay system: "HCT-116 colon"
  result: "> 100 µM"
- molecule: "COC(=O)C1(C(=O)OC)N=C(C)OC1c1ccoc1 (stereo unspecified)"
  assay system: "HCT-116 colon"
  result: "> 100 µM"
- molecule: "C=CCCC1CCCCNC1=S (stereo unspecified)"
  assay system: "HCT-116 colon"
  result: "> 10 µM"
- molecule: "FC(F)(F)c1ccc(C2=N/S(c3ccccc3)=N\\C(c3ccc(C(F)(F)F)cc3)=N/S(c3ccccc3)=N\\2)cc1 (stereo unspecified)"
  assay system: "HCT-116 colon"
  result: "> 100 µM"
- molecule: "NC(CCCNCc1ccccc1)C(=O)O (stereo unspecified)"
  assay system: "HCT-116 colon"
  result: "> 100 µM"

---

Test system: T-47D breast
test protocol: NCI tumour cell line growth inhibition, 48 h
TGI: recorded values
quantity name: TGI

- compound: "C=Cc1ccccc1C1C(C(=O)OCC)=C(C)N=C2OC(C(=O)OC)C(=O)N21 (stereo not drawn)"
  result: "> 100 µM"
- compound: "NC(=O)c1cc(Cl)ccc1NC(=O)COc1ccccc1"
  result: "> 100 µM"
- compound: "COc1cccc(-n2ncc3c(N/N=C/c4cccc(F)c4)ncnc32)c1"
  result: "> 19.2 µM"

---

Test system: ACHN renal
test protocol: NCI tumour cell line growth inhibition, 48 h
TGI: recorded values
quantity name: TGI

- compound string: "CSc1cc(Cl)c(C)cc1S(=O)(=O)NC(=O)Nc1ccc(Cl)cc1"
  quantity name: "TGI"
  result: "> 100 µM"
- compound string: "O=C(/C=C/c1ccccc1O)c1cccs1"
  quantity name: "TGI"
  result: "> 100 µM"
- compound string: "COc1ccc(N2CCOCC2)cc1"
  quantity name: "TGI"
  result: "> 100 µM"
- compound string: "C/C=C/CC(S(=O)(=O)c1ccccc1)S(=O)(=O)c1ccccc1"
  quantity name: "TGI"
  result: "> 100 µM"
- compound string: "Cc1nc(Nc2ccc(Cl)cc2)sc1C(=O)NNC(=O)C(=O)NN"
  quantity name: "TGI"
  result: "49.4 µM"

---

TGI: recorded values
Test system: NCI-H23 lung
test protocol: NCI tumour cell line growth inhibition, 48 h
quantity name: TGI

- compound: "Cc1cc(C)c(-n2c(-c3ccccc3)cs/c2=N\\N=C2C=C(C(C)(C)C)C(=O)C(C(C)(C)C)=C2)c(C)c1"
  assay system: "NCI-H23 lung"
  result: "> 100 µM"
- compound: "COc1ccc(C=C2C(=O)NC(=S)NC2=O)c2ccccc12"
  assay system: "NCI-H23 lung"
  result: "> 100 µM"
- compound: "O=C(O)C1(Cc2ccccc2)Cc2ccccc2C1"
  assay system: "NCI-H23 lung"
  result: "> 100 µM"
- compound: "Clc1ccc(Cc2nc3cc(Cl)ccc3o2)cc1"
  assay system: "NCI-H23 lung"
  result: "> 100 µM"
- compound: "FC(F)(F)c1ccc(C2=N/S(c3ccccc3)=N\\C(c3ccc(C(F)(F)F)cc3)=N/S(c3ccccc3)=N\\2)cc1 (stereo unspecified)"
  assay system: "NCI-H23 lung"
  result: "> 100 µM"
- compound: "O=c1c2[nH]ccc2nc2n1CCS2"
  assay system: "NCI-H23 lung"
  result: "> 100 µM"
- compound: "Cc1nn(CN2CCN(C)CC2)c(=S)n1/N=C/c1ccc(-c2ccc(Cl)cc2Cl)o1"
  assay system: "NCI-H23 lung"
  result: "> 100 µM"
- compound: "N=c1c2ccccc2nc2oc3ccccc3n12"
  assay system: "NCI-H23 lung"
  result: "> 100 µM"
- compound: "O=c1oc2ccccc2c(O)c1C(C/C(CCN1CCCC1)=N/O)c1ccccc1 (stereo unspecified)"
  assay system: "NCI-H23 lung"
  result: "> 100 µM"
- compound: "CCCCCCCCCCCCCC(=S)N/C=C/OC"
  assay system: "NCI-H23 lung"
  result: "74 µM"
- compound: "O=C(c1cccs1)c1c(C(F)(F)F)n([O-])c2ccc(Cl)cc2[n+]1=O"
  assay system: "NCI-H23 lung"
  result: "2.26 µM"
- compound: "N=C(N)c1ccc(-c2ccc(-c3cccs3)o2)cc1"
  assay system: "NCI-H23 lung"
  result: "13.2 µM"
- compound: "O=C1OC(CC(=O)c2ccc(Cl)cc2)C(Cl)=C1Cl (stereo unspecified)"
  assay system: "NCI-H23 lung"
  result: "> 100 µM"
- compound: "O=C(C1CC1)N1CC[C@@H](Cc2n[nH]c(=O)n2-c2ccc(-c3ccc4occc4c3)cc2)C1"
  assay system: "NCI-H23 lung"
  result: "> 100 µM"
- compound: "Cc1cnc(NC2CCOCC2)nc1-n1cnc(C(=O)N[C@H](CN)c2cc(F)cc(Cl)c2)c1"
  assay system: "NCI-H23 lung"
  result: "16.5 µM"
- compound: "Cc1ccc(S(=O)(=O)/N=C(\\NO)Nc2ccc(Cl)c(Cl)c2)cc1"
  assay system: "NCI-H23 lung"
  result: "37.2 µM"
